# Experimental target: T1, CaBdf1 BD2 (GST-tagged, wild-type) (Candida albicans (strain SC5314 / ATCC …, UniProt Q5A4W8))
# T1 chain: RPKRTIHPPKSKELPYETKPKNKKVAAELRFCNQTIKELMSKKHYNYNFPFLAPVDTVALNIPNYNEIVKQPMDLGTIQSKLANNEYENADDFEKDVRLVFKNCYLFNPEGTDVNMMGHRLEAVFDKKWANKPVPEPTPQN
# Test protocol: histone peptide array (Active Motif MODified), 1 uM GST-tagged bromodomain, anti-GST detection, normalized mean intensity
Numbered stars: 1 amine (or outer) side, 2 acyl side, 3 side chain; on linkers, the order of the positions; unused ones are H or OH. Square brackets hold non-standard residues; d marks the D form. Ends that are not written are not given here. Arg(Me2a) = CN(C)C(=N)NCCC[C@H](N)C(=O)O; Kac = CC(=O)NCCCC[C@H](N[*:1])C(=O)[*:2]; Arg(Me2s) = CN=C(NC)NCCC[C@H](N)C(=O)O; pT = C[C@@H](OP(=O)(O)O)[C@H](N)C(=O)O; Lys(Me2) = CN(C)CCCC[C@H](N)C(=O)O; pS = N[C@@H](COP(=O)(O)O)C(=O)O; Lys(Me) = CNCCCC[C@H](N)C(=O)O; Me2a = not defined here
Observation type: binding score

{"Binder": "ARTKQTARKSTGGKAPRKQ (A R T K Q T A Rme2s Kac S pT G G K A P R K Q)", "Value observed": 0.00407}
{"Binder": "SGRGKGGKGLGKGGAKRHR (pS G Rme2a G K G G K G L G K G G A K R H R)", "Value observed": 0.00148}
{"Binder": "ARTKQTARKSTGGKAPRKQ (A R T Kme3 Q T A Rme2s Kme3 S T G G K A P R K Q)", "Value observed": 0.00407}
{"Binder": "SGRGK(Ac)QGGKARAK(Ac)AKSRSS [H2a 1-19]", "Value observed": 0.0859}
{"Binder": "ARTKQTARKSTGGKAPRKQ (A Rme2s T Kac Q T A Rme2a Kme3 S T G G K A P R K Q)", "Value observed": 0.00407}
{"Binder": "SGRGKGGKGLGKGGAKRHR (S G R G K G G Kac G L G Kac G G A Kac R H R)", "Value observed": 0.16}
{"Binder": "ARTKQTARKSTGGKAPRKQ (A R T K Q T A Rme2s Kme2 pS T G G K A P R K Q)", "Value observed": 0.00333}
{"Binder": "PRKQLATKAAR(Me2s)K[pS]APATGG", "Value observed": 0.00444}
{"Binder": "A[Arg(Me2s)]T[Lys(Me2)]QTARKSTGGKAPRKQ", "Value observed": 0}
{"Binder": "PRKQLATKAARKSAPATGG (P R K Q L A T K A A R Kme2 S A P A T G G)", "Value observed": 0.00666}
{"Binder": "ARTKQTA[Arg(Me2a)]K(Me)[pS]TGGKAPRKQ", "Value observed": 0.00407}
{"Binder": "AR(Me2a)[pT]K(Me2)QTARKSTGGKAPRKQ (reading uncertain)", "Value observed": 0}
{"Binder": "AR(Me2a)TK(Ac)QTAR(Me2a)K(Ac)STGGKAPRKQ (reading uncertain)", "Value observed": 0.0107}
{"Binder": "SGRGKGGKGLGKGGAKRHR (pS G R G Kac G G K G L G K G G A K R H R)", "Value observed": 0.00555}
{"Binder": "A[Arg(Me2s)][pT]KQTARKSTGGKAPRKQ", "Value observed": 0.00074}
{"Binder": "PDPAK(Ac)SAPAPKK(Ac)G[pS]K(Ac)KAVT [H2B 1-19]", "Value observed": 0.232}
{"Binder": "ARTKQTARKSTGGKAPRKQ (A Rme2s T Kac Q T A Rme2s Kme3 S T G G K A P R K Q)", "Value observed": 0.00555}
{"Binder": "A[Arg(Me2a)]T[Lys(Me2)]QTA[Arg(Me2s)][Lys(Me2)]STGGKAPRKQ", "Value observed": 0.00666}
{"Binder": "A[Arg(Me2s)]T[Kac]QTA[Arg(Me2s)][Lys(Me2)]STGGKAPRKQ", "Value observed": 0.00666}
{"Binder": "A[Arg(Me2a)]T[Lys(Me)]QTAR[Kac]STGGKAPRKQ", "Value observed": 0.00592}
{"Binder": "ARTKQTARKSTGGKAPRKQ (A R T K Q T A Rme2s Kme1 S pT G G K A P R K Q)", "Value observed": 0.00407}
{"Binder": "SGRGKGGKGLGKGGAKRHR (S G R G K G G K G L G Kac G G A Kac R H R)", "Value observed": 0.0248}
{"Binder": "ARTK(Ac)QTARKSTGGKAPRKQ", "Value observed": 0.00222}
{"Binder": "PRKQLATKAAR(Me2s)K(Me2)SAPATGG", "Value observed": 0.00222}
{"Binder": "SGRGKGGKGLGKGGAKRHR (S G Rme2a G Kac G G Kac G L G Kac G G A K R H R)", "Value observed": 0.375}
{"Binder": "PRKQLATKAARK(Me2)[pS]APATGG", "Value observed": 0.00074}
{"Binder": "ARTKQTARKSTGGKAPRKQ (A Rme2a T Kme1 Q T A Rme2s Kme3 S T G G K A P R K Q)", "Value observed": 0.00629}

The measurements presented in this section are drawn from paper PMC5454392.
